Each entry below carries its recorded shrunken log2 fold change.
- Tested on: Escherichia coli TOP10
- test description: shrunken log2 fold change of peptide-encoding DNA abundance (4.5 h post-induction vs induction); higher = less antimicrobial activity (less host growth inhibition)
- run conditions: time post-induction: 4.5 h; library: site-saturation at positions 5, 18, 19, 20
Could you keep your reply to the number by itself?

{"columns": ["biosequence", "endpoint name", "measurement"],
 "data": [
  ["RRIRPRPPRLPRPRPRPHCFPRP", "shrunken log2 fold change", -0.497],
  ["RRIRERPPRLPRPRPRPNSTPRP", "shrunken log2 fold change", -0.495],
  ["RRIRMRPPRLPRPRPRPHAMPRP", "shrunken log2 fold change", -0.0135],
  ["RRIRHRPPRLPRPRPRPRQWPRP", "shrunken log2 fold change", 0.408],
  ["RRIRKRPPRLPRPRPRPYGSPRP", "shrunken log2 fold change", -0.224],
  ["RRIRSRPPRLPRPRPRPTHNPRP", "shrunken log2 fold change", -0.133],
  ["RRIRTRPPRLPRPRPRPCKCPRP", "shrunken log2 fold change", -1.16]
]}

Now look at this one.
shrunken log2 fold change on Escherichia coli TOP10 for "RRIRYRPPRLPRPRPRPTKNPRP" is -0.495

###

Each entry below carries its recorded shrunken log2 fold change.
- Tested on: Escherichia coli TOP10
- test description: shrunken log2 fold change of peptide-encoding DNA abundance (4.5 h post-induction vs induction); higher = less antimicrobial activity (less host growth inhibition)
- run conditions: time post-induction: 4.5 h; library: site-saturation at positions 5, 18, 19, 20
Could you keep your reply to the number by itself?

Example entries and their recorded answers appear below.
{"columns": ["biosequence", "endpoint name", "measurement"],
 "data": [
  ["RRIRDRPPRLPRPRPRPFRSPRP", "shrunken log2 fold change", -0.0401],
  ["RRIRHRPPRLPRPRPRPPQKPRP", "shrunken log2 fold change", 0.0508]
]}

Now look at this one.
// sample "RRIRIRPPRLPRPRPRPSRIPRP" , its shrunken log2 fold change was -0.0712

###

- Test system: Escherichia coli TOP10
- test description: shrunken log2 fold change of peptide-encoding DNA abundance (4.5 h post-induction vs induction); higher = less antimicrobial activity (less host growth inhibition)
- run conditions: time post-induction: 4.5 h; library: site-saturation at positions 5, 18, 19, 20
endpoint name: shrunken log2 fold change
Could you keep your reply to the number by itself?

{"columns": ["biosequence", "shrunken log2 fold change"],
 "data": [
  ["RRIRRRPPRLPRPRPRPPWEPRP", 0.0894]
]}

// sample "RRIRYRPPRLPRPRPRPAQRPRP" , its shrunken log2 fold change was -0.0772

###

- System: Escherichia coli TOP10;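 also: peptides expressed intracellularly from a pBAD plasmid library in pooled LB shake-flask culture, induced with 0.3% L-arabinose, DNA abundance read by NGS, three biological replicates, DESeq2 with apeglm shrinkage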
- test description: shrunken log2 fold change of peptide-encoding DNA abundance (4.5 h post-induction vs induction); higher = less antimicrobial activity (less host growth inhibition)
- run conditions: time post-induction: 4.5 h; library: site-saturation at positions 5, 18, 19, 20
// Not met strictly below -0.04 in shrunken log2 fold change; Met otherwise

Please review the entries below; each comes with its answer.
{"columns": ["biosequence", "target of assay", "qualitative label"],
 "data": [
  ["RRIRPRPPRLPRPRPRPDRSPRP", "Escherichia coli TOP10", "Not met"],
  ["RRIRARPPRLPRPRPRPTLHPRP", "Escherichia coli TOP10", "Met"],
  ["RRIRQRPPRLPRPRPRPGQIPRP", "Escherichia coli TOP10", "Not met"],
  ["RRIRLRPPRLPRPRPRPTTYPRP", "Escherichia coli TOP10", "Not met"],
  ["RRIRNRPPRLPRPRPRPMYTPRP", "Escherichia coli TOP10", "Not met"],
  ["RRIRDRPPRLPRPRPRPQHRPRP", "Escherichia coli TOP10", "Not met"],
  ["RRIRKRPPRLPRPRPRPDVVPRP", "Escherichia coli TOP10", "Met"],
  ["RRIRRRPPRLPRPRPRPQIYPRP", "Escherichia coli TOP10", "Not met"]
]}

Inquiry: Reported shrunken log2 fold change at or above -0.04? "RRIRGRPPRLPRPRPRPNHVPRP"
Reply text: Met

Inquiry: Reported shrunken log2 fold change at or above -0.04? "RRIRNRPPRLPRPRPRPPTQPRP"
Reply text: Met

Inquiry: Reported shrunken log2 fold change at or above -0.04? "RRIRQRPPRLPRPRPRPFILPRP"
Reply text: Not met

Inquiry: Reported shrunken log2 fold change at or above -0.04? "RRIRGRPPRLPRPRPRPCYEPRP"
Reply text: Met

Inquiry: Reported shrunken log2 fold change at or above -0.04? "RRIRCRPPRLPRPRPRPRGEPRP"
Reply text: Met

Inquiry: Reported shrunken log2 fold change at or above -0.04? "RRIRSRPPRLPRPRPRPEKWPRP"
Reply text: Met

Inquiry: Reported shrunken log2 fold change at or above -0.04? "RRIRQRPPRLPRPRPRPMYGPRP"
Reply text: Met

Inquiry: Reported shrunken log2 fold change at or above -0.04? "RRIRCRPPRLPRPRPRPPCMPRP"
Reply text: Not met
